target_desc: Bromodomain-containing protein 7 (Homo sapiens)
Sequence (Q9NPI1 whole entry): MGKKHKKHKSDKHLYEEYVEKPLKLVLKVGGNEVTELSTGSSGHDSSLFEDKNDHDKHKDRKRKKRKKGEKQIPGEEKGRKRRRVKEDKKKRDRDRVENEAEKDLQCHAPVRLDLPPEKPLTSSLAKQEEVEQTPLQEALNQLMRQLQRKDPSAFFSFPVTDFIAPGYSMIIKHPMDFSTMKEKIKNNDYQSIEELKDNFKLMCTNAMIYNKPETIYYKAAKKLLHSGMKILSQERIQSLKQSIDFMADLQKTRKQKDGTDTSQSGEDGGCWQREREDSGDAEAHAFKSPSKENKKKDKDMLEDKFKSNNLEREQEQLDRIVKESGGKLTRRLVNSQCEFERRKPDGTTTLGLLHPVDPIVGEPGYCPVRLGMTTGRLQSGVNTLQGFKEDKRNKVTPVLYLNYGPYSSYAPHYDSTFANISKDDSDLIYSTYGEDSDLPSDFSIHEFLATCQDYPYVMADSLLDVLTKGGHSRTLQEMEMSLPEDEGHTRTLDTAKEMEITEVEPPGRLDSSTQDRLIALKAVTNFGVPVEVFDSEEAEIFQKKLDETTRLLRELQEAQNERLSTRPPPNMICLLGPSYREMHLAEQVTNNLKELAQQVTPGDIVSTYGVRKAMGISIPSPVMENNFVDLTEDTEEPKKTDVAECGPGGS
protocol_details: Displacement of FAM-labeled BI-FAMb from N-terminal His TEV-tagged human recombinant BRD7 bromodomain expressed in Escherichia coli BL21(DE3) by competitive fluorescence polarization assay
assay_endpoint: IC50 (µM)

* Cc1cc(C)cc(-c2cn(C)c(=O)c3ccccc23)c1 | 8.1
* COc1ccc(-c2ccc3c(C)cc(=O)n(C)c3c2)c(OC)n1 | 5.4
* COc1ccc(-c2ccc3c(C)cc(=O)n(C)c3c2)c(C)n1 | 1.6
* COc1ccc(-c2cn(C)c(=O)c3ccccc23)c(OC)n1 | 2.9

====

target_desc: Bromodomain-containing protein 9 (Homo sapiens)
protocol_details: Binding affinity to human partial length BRD9 bromodomain (130 to 259 residues) expressed in bacterial expression system by BROMOscan KdELECT analysis
assay_endpoint: Kd (nM)

• COc1ccc(-c2ccc3c(C)cc(=O)n(C)c3c2)c(OC)n1 = 655
• COc1ccc(-c2ccc3c(C)cc(=O)n(C)c3c2)c(C)n1 = 650

====

Entries and their pIC50 values follow.
target_desc: Bromodomain-containing protein 9 (Homo sapiens, UniProt Q9H8M2)
Sequence (Q9H8M2 whole entry): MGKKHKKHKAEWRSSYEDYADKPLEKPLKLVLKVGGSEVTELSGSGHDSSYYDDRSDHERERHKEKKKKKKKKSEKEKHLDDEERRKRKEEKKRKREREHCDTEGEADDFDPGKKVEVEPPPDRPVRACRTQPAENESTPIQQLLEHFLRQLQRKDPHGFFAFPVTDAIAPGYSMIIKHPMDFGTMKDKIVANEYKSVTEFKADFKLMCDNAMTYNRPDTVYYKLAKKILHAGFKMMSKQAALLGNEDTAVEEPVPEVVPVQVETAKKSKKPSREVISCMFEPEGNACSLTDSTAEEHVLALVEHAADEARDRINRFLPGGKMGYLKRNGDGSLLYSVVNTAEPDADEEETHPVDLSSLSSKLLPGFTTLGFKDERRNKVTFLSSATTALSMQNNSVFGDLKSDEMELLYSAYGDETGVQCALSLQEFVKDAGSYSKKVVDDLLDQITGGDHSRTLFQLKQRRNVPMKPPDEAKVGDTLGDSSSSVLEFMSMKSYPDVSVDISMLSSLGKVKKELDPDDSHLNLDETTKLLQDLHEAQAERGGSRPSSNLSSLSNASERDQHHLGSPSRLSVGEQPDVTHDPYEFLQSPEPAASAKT
protocol_details: Displacement of NanoBRET BRD Tracer-02 from Nanoluc-fused BRD9 bromodomain (unknown origin) expressed in HEK293T cells incubated for 2 hrs by NanoBRET assay
Type: cell-based
condition: read-out: IC50
pIC50: −log10 of the molar value.
assay_endpoint: pIC50

- COc1ccc(-c2ccc3c(C)cc(=O)n(C)c3c2)c(OC)n1: 5.49
- COc1ccc(-c2ccc3c(C)cc(=O)n(C)c3c2)c(C)n1: 5.48

====

target_desc: Bromodomain-containing protein 9 (Homo sapiens, UniProt Q9H8M2)
Sequence (Q9H8M2 whole entry): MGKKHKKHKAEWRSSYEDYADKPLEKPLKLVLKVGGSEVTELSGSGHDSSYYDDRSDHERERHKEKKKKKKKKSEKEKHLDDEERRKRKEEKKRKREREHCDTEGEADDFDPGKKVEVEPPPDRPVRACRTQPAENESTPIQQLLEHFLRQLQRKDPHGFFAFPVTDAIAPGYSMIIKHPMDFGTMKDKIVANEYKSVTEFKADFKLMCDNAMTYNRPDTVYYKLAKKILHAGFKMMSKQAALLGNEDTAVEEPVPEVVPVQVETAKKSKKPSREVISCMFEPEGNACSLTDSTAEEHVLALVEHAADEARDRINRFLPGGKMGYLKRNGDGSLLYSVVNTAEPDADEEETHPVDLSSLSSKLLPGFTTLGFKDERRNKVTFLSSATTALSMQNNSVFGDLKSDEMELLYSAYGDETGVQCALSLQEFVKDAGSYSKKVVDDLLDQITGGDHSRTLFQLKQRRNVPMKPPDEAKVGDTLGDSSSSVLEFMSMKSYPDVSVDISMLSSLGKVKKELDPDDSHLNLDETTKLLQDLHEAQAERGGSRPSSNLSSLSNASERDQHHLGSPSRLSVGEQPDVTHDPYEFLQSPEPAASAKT
protocol_details: Displacement of FAM-labeled BI-FAMb from N-terminal His TEV-tagged human recombinant BRD9 bromodomain expressed in Escherichia coli BL21(DE3) by competitive fluorescence polarization assay
pKi: −log10 of the molar value.
Entries and their pKi values follow.
assay_endpoint: pKi

* COc1ccc(-c2cn(C)c(=O)c3ccccc23)c(OC)n1 | 6.89
* COc1ccc(-c2ccc3c(C)cc(=O)n(C)c3c2)c(C)n1 | 6.64
* Cc1cc(C)cc(-c2cn(C)c(=O)c3ccccc23)c1 | 6.47
